In this section, each of the compounds is paired with its reported IC50.
Target: JAK3 (Homo sapiens)
Construct: endogenous in cells; host or cells: Mixed Molt4 / Ramos cell lysate (1:2)
Sequence (P52333 whole entry): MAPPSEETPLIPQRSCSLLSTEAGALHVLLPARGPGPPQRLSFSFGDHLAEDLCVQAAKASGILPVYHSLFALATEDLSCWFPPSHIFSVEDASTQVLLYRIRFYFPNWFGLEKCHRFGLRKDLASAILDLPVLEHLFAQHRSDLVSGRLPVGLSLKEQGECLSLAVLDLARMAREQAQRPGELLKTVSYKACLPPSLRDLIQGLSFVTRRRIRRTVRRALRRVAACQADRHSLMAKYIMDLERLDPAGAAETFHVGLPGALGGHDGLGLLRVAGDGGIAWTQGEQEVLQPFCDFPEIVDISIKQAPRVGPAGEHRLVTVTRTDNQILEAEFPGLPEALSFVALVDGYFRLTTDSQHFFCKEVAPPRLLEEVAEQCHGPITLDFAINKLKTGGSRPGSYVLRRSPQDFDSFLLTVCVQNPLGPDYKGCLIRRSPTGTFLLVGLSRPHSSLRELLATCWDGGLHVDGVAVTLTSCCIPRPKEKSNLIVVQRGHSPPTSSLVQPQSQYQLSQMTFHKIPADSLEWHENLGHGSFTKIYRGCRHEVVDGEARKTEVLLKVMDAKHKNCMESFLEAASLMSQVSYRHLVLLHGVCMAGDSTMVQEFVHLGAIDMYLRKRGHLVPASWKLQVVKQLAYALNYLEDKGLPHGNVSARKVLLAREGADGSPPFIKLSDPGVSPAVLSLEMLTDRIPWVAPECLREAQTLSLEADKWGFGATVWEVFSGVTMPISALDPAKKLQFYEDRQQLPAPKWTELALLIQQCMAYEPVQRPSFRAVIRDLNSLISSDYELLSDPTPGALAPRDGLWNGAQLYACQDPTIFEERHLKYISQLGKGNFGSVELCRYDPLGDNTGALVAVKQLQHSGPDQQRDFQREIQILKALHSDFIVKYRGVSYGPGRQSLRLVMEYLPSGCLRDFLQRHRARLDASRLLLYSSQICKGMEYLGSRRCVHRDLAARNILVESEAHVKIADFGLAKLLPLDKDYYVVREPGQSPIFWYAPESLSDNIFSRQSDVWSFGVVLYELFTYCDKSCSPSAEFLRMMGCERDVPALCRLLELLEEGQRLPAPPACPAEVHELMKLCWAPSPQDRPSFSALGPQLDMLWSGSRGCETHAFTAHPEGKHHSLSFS
Experiment: kinobeads assay (competition with affinity matrix in mixed Molt4/Ramos cell lysate, dot blot detection), JAK3
Type: binding
Conditions: activity level
Experimental: The compounds of the present invention as described in the previous examples were tested in a kinobeads assay as described for ZAP-70 (WO-A 2007/137867). […] Bound proteins were then eluted and the presence of, JAK2 and JAK3 was detected and quantified using specific antibodies in a dot blot procedure and the Odyssey infrared detection system. Dose response curves for individual kinases were generated and IC50 values calculated. […]

>  <Chem smiles>
CNC(=O)c1cccc(Nc2ncc(Cl)c(Nc3ccccc3NS(C)(=O)=O)n2)c1F

>  <IC50>
< 100 nM

$$$$
>  <Chem smiles>
CCS(=O)(=O)Nc1ccccc1Nc1nc(Nc2cc(C(=O)NC3CC3)ccc2F)ncc1Cl

>  <IC50>
< 100 nM

$$$$
>  <Chem smiles>
CS(=O)(=O)Nc1ccccc1Nc1nc(Nc2cc(F)c(C(=O)NC3CC3)cc2F)ncc1Cl

>  <IC50>
< 100 nM

$$$$
>  <Chem smiles>
CS(=O)(=O)Nc1ccccc1Nc1nc(Nc2cc(C#N)ccc2F)ncc1Cl

>  <IC50>
< 100 nM

$$$$
>  <Chem smiles>
CS(=O)(=O)Nc1ccccc1Nc1nc(Nc2cc(C(N)=O)ccc2F)ncc1F

>  <IC50>
100 to 1000 nM

$$$$
>  <Chem smiles>
CNC(=O)c1ccc(F)c(Nc2ncc(Cl)c(Nc3cc(F)c(F)cc3NS(C)(=O)=O)n2)c1

>  <IC50>
100 to 1000 nM

$$$$
>  <Chem smiles>
COc1ccc(Nc2nc(Nc3cc(-n4cnnn4)ccc3F)ncc2Cl)c(NS(C)(=O)=O)c1

>  <IC50>
< 100 nM

$$$$
>  <Chem smiles>
CCNC(=O)c1ccc(F)c(Nc2ncc(Cl)c(Nc3ccccc3NS(=O)(=O)CC)n2)c1

>  <IC50>
< 100 nM

$$$$
>  <Chem smiles>
CS(=O)(=O)Nc1ccccc1Nc1nc(Nc2cc(C(=O)N3CCC3)ccc2F)ncc1Cl

>  <IC50>
< 100 nM

$$$$
>  <Chem smiles>
CCNC(=O)c1ccc(Nc2ncc(Cl)c(Nc3cccc(F)c3NS(C)(=O)=O)n2)c(F)c1

>  <IC50>
< 100 nM

$$$$
>  <Chem smiles>
CS(=O)(=O)Nc1ccccc1Nc1nc(Nc2cc(C(=O)NCCO)ccc2F)ncc1Cl

>  <IC50>
< 100 nM

$$$$
>  <Chem smiles>
CCN(CC)C(=O)c1ccc(F)c(Nc2ncc(Cl)c(Nc3ccccc3NS(=O)(=O)CC)n2)c1

>  <IC50>
< 100 nM

$$$$
>  <Chem smiles>
CS(=O)(=O)Nc1ccccc1Nc1nc(Nc2cc(-n3cnnn3)ccc2F)ncc1Cl

>  <IC50>
< 100 nM

$$$$
>  <Chem smiles>
CS(=O)(=O)Nc1c(F)cc(F)cc1Nc1nc(Nc2cc(C(=O)NC3CC3)ccc2F)ncc1Cl

>  <IC50>
100 to 1000 nM

$$$$
>  <Chem smiles>
CS(=O)(=O)Nc1ccccc1Nc1nc(Nc2cc(C(=O)N3CCOCC3)ccc2F)ncc1Cl

>  <IC50>
< 100 nM

$$$$
>  <Chem smiles>
CCS(=O)(=O)Nc1ccccc1Nc1nc(Nc2cc(C#N)ccc2F)ncc1Cl

>  <IC50>
100 to 1000 nM

$$$$
>  <Chem smiles>
CS(=O)(=O)Nc1ccccc1Nc1nc(Nc2cc(-n3cnnn3)ccc2F)ncc1Br

>  <IC50>
< 100 nM

$$$$
